target-under-test: KRAS WT (Homo sapiens (Human), UniProt P01116+P62937)
Sequence (P01116-2 other isoform, or with tags, fused parts or gaps): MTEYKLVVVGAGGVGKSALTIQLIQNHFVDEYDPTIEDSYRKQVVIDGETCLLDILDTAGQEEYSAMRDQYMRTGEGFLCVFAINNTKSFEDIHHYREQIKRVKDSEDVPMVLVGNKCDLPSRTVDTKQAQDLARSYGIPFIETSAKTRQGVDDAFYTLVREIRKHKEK
Sequence (P62937 whole entry): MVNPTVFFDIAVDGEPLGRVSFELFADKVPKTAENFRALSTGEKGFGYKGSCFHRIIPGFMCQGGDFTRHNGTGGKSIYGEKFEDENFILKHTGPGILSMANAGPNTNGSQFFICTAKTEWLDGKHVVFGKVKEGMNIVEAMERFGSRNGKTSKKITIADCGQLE
test-summary: Ras-Raf (BRAF RBD) disruption / FRET / MOA assay, KRAS WT
Format: biochemical
condition-label: read-out: IC50* KRAS WT FRET data
pIC50: −log10 of the molar value.
The following compounds are listed with their measured pIC50 values.

compound	pIC50
C=CC(=O)N1CC2(CCN([C@H](C(=O)N[C@H]3Cc4cc(O)cc(c4)-c4ccc5c(c4)c(c(-c4cccnc4[C@H](C)OC)n5CC)CC(C)(C)COC(=O)[C@@H]4CCCN(N4)C3=O)C(C)C)C2=O)C1 (atropisomer, axis not shown)	7.00 to 8.00
CCn1c(-c2cccnc2[C@H](C)OC)c2c3cc(ccc31)-c1cccc(c1)C[C@H](NC(=O)[C@H](C(C)C)N(C)C(=O)[C@H]1CCN(C(=O)C#CC(C)(C)N3CCCC3)C1)C(=O)N1CCC[C@H](N1)C(=O)OCC(C)(C)C2 (atropisomer, axis not shown)	5.00 to 6.00
CCn1c(-c2cccnc2[C@H](C)OC)c2c3cc(ccc31)-c1csc(n1)C[C@H](NC(=O)[C@@H](COC1CN(C(=O)C#CC(C)(C)N(C)C)C1)C(C)C)C(=O)N1CCC[C@H](N1)C(=O)OCC(C)(C)C2 (atropisomer, axis not shown)	< 5.00
CCn1c(-c2cccnc2[C@H](C)OC)c2c3cc(ccc31)-c1csc(n1)C[C@H](NC(=O)[C@H](C(C)C)N(C)C(=O)N(C)C1CN(C(=O)/C=C/[C@H]3CCCN3C)C1)C(=O)N1CCC[C@H](N1)C(=O)OCC(C)(C)C2 (atropisomer, axis not shown)	6.00 to 7.00
CCn1c(-c2ccccc2CCOC)c2c3cc(ccc31)-c1cc(O)cc(c1)C[C@H](NC(=O)[C@H](C(C)C)N(C)C(=O)c1ccc(NC(=O)/C=C/CN(C)C)cc1)C(=O)N1CCC[C@H](N1)C(=O)OCC(C)(C)C2	5.00 to 6.00
C=CC(=O)N1CCOC2(CCN(C(=O)N(C)[C@H](C(=O)N[C@H]3Cc4cc(C(F)F)cc(n4)-c4ccc5c(c4)c(c(-c4cccnc4[C@H](C)OC)n5CC(F)(F)F)CC(C)(C)COC(=O)[C@@H]4CCCN(N4)C3=O)C(C)C)CC2)C1 (atropisomer, axis not shown)	6.00 to 7.00
CO[C@@H](C)c1ncccc1-c1c2c3cc(ccc3n1CC(F)(F)F)-c1nc(co1)C[C@H](NC(=O)[C@H](C(C)C)N(C)C(=O)C1(F)CCN(C(=O)C#CC(C)(C)N(C)C)CC1)C(=O)N1CCC[C@H](N1)C(=O)OCC(C)(C)C2 (atropisomer, axis not shown)	6.00 to 7.00
C=CC(=O)N1CC[C@H](C(=O)N(C)[C@H](C(=O)N[C@H]2Cc3cc(O)cc(c3)-c3ccc4c(c3)c(c(-c3cn(C)cn3)n4CC)CC(C)(C)COC(=O)[C@@H]3CCCN(N3)C2=O)C(C)C)C1	< 5.00
